Listing of recorded concentration at 6 h by entry.
methodDescription: Drug level in HCT116 xenografted mouse tumor at 100 mg/kg, ip after 6 hrs
Format: ADME, organism-based, Neoplasm
Design: dose 100 mg/kg, route intraperitoneal
runParameters: human, tumor (HCT116 xenograft), read-out: Drug uptake
readoutKind: concentration at 6 h (µM)

>  <compound>
O=C(Nc1ccc(F)c(Cl)c1)Nc1ncc(CCNc2ncnc3ccsc23)s1

>  <readoutKind>
concentration at 6 h

>  <measuredNumber>
112

$$$$
>  <compound>
CS(=O)(=O)O.O=C(Nc1cccc(Cl)c1)Nc1ncc(CCNc2ncnc3ccsc23)s1 [SNS-314 MESYLATE]

>  <readoutKind>
concentration at 6 h

>  <measuredNumber>
28.6

$$$$
>  <compound>
O=C(Nc1cc(CN2CCCC2)cc(C(F)(F)F)c1)Nc1ncc(CCNc2ncnc3ccsc23)s1

>  <readoutKind>
concentration at 6 h

>  <measuredNumber>
6.2

$$$$
>  <compound>
O=C(Nc1ccc(Cl)c(Cl)c1)Nc1ncc(CCNc2ncnc3ccsc23)s1

>  <readoutKind>
concentration at 6 h

>  <measuredNumber>
49.5

$$$$
>  <compound>
O=C(Nc1ncc(CCNc2ncnc3ccsc23)s1)Nc1cccc2cc[nH]c12

>  <readoutKind>
concentration at 6 h

>  <measuredNumber>
16.9

$$$$
>  <compound>
O=C(Nc1cccc(F)c1)Nc1ncc(CCNc2ncnc3ccsc23)s1

>  <readoutKind>
concentration at 6 h

>  <measuredNumber>
101

$$$$

----------
methodDescription: Drug level in HCT116 xenografted mouse tumor at 50 mg/kg, ip after 10 hrs
Format: ADME, organism-based, Neoplasm
Parameters: dose 50 mg/kg, route intraperitoneal
runParameters: human, tumor (HCT116 xenograft), read-out: Drug uptake
Listing of recorded concentration at 10 h by entry.

>  <molecule>
O=C(Nc1ccc(Cl)c(Cl)c1)Nc1ncc(CCNc2ncnc3ccsc23)s1

>  <displayUnit>
µM

>  <modifierSign>
=

>  <concentration at 10 h>
12.5

$$$$
>  <molecule>
O=C(Nc1ccc(F)c(Cl)c1)Nc1ncc(CCNc2ncnc3ccsc23)s1

>  <displayUnit>
µM

>  <modifierSign>
=

>  <concentration at 10 h>
15.6

$$$$
>  <molecule>
O=C(Nc1ncc(CCNc2ncnc3ccsc23)s1)Nc1cccc2cc[nH]c12

>  <displayUnit>
µM

>  <modifierSign>
=

>  <concentration at 10 h>
3.67

$$$$
>  <molecule>
CS(=O)(=O)O.O=C(Nc1cccc(Cl)c1)Nc1ncc(CCNc2ncnc3ccsc23)s1 [SNS-314 MESYLATE]

>  <displayUnit>
µM

>  <modifierSign>
=

>  <concentration at 10 h>
3.72

$$$$
>  <molecule>
O=C(Nc1cccc(CCN2CCC2)c1)Nc1ncc(CCNc2ncnc3ccsc23)s1

>  <displayUnit>
µM

>  <modifierSign>
<

>  <concentration at 10 h>
1

$$$$
>  <molecule>
O=C(Nc1cccc(F)c1)Nc1ncc(CCNc2ncnc3ccsc23)s1

>  <displayUnit>
µM

>  <modifierSign>
<

>  <concentration at 10 h>
1

$$$$

----------
System: Mus musculus
methodDescription: Decrease in histone H3 phosphorylation in human HCT116 cells xenografted mouse at 100 mg/kg, ip after 10 hrs
Type: functional
runParameters: HCT-116, ip, route intraperitoneal
readoutKind: inhibition in vivo at 100 mg/kg (%)

>  <molecule>
O=C(Nc1cccc(F)c1)Nc1ncc(CCNc2ncnc3ccsc23)s1

>  <readoutKind>
inhibition in vivo at 100 mg/kg

>  <displayUnit>
%

>  <measuredNumber>
25

$$$$
>  <molecule>
O=C(Nc1cc(CN2CCCC2)cc(C(F)(F)F)c1)Nc1ncc(CCNc2ncnc3ccsc23)s1

>  <readoutKind>
inhibition in vivo at 100 mg/kg

>  <displayUnit>
%

>  <measuredNumber>
25

$$$$
>  <molecule>
CS(=O)(=O)O.O=C(Nc1cccc(Cl)c1)Nc1ncc(CCNc2ncnc3ccsc23)s1 [SNS-314 MESYLATE]

>  <readoutKind>
inhibition in vivo at 100 mg/kg

>  <displayUnit>
%

>  <measuredNumber>
75

$$$$
>  <molecule>
O=C(Nc1ccc(Cl)c(Cl)c1)Nc1ncc(CCNc2ncnc3ccsc23)s1

>  <readoutKind>
inhibition in vivo at 100 mg/kg

>  <displayUnit>
%

>  <measuredNumber>
25

$$$$
>  <molecule>
O=C(Nc1ncc(CCNc2ncnc3ccsc23)s1)Nc1cccc2cc[nH]c12

>  <readoutKind>
inhibition in vivo at 100 mg/kg

>  <displayUnit>
%

>  <measuredNumber>
75

$$$$
>  <molecule>
O=C(Nc1ccc(F)c(Cl)c1)Nc1ncc(CCNc2ncnc3ccsc23)s1

>  <readoutKind>
inhibition in vivo at 100 mg/kg

>  <displayUnit>
%

>  <measuredNumber>
50

$$$$
>  <molecule>
O=C(Nc1cccc(C(F)(F)F)c1)Nc1ncc(CCNc2ncnc3ccsc23)s1

>  <readoutKind>
inhibition in vivo at 100 mg/kg

>  <displayUnit>
%

>  <measuredNumber>
75

$$$$

Every entry's value here was drawn from ChEMBL document CHEMBL1156726.
